Task for the reader: assign each of the following compounds its reported pIC50.
- TARGET: pY705-STAT3 in PBMC (Homo sapiens, UniProt P40763)
- Construct: Cryopreserved Peripheral Blood Mononuclear Cells (PBMC) are from AllCells; host or cells: cryopreserved PBMC
- Sequence (P40763 whole entry): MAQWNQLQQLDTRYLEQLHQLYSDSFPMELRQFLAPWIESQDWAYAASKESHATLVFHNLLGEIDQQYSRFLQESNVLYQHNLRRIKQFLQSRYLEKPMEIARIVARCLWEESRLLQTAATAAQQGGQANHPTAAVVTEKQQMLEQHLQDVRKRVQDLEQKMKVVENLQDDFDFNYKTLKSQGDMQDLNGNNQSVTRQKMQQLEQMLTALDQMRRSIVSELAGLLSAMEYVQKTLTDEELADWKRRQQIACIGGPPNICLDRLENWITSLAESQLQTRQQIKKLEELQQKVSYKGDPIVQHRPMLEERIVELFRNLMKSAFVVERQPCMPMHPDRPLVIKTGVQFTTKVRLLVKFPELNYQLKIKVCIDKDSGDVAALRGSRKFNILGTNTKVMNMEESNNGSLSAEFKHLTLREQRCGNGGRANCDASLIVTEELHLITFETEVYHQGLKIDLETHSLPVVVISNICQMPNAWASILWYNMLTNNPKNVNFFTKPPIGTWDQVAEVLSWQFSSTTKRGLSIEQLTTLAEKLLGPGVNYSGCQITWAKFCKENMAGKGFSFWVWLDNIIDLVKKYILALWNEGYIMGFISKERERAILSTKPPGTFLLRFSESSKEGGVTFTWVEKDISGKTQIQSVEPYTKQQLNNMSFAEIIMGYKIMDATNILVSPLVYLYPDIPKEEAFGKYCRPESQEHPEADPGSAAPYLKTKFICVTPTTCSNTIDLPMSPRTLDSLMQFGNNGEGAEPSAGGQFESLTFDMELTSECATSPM
- EXPERIMENT: MSD-pSTAT-PBMC Assay (pSTAT3, IL-6 stimulated)
- Type: cell-based
- PARTICULARS: PBMC, compound 3 hrs, then 10 ng/mL IL-6 for 10 min; Table 115; read-out: STAT3
pIC50: −log10 of the molar value.

Query string: What value of pIC50 has been reported for the following compound? N#C[C@H]1CN(C(=O)[C@@H]2CC[C@@H]3CCCC[C@H](NC(=O)c4ccc5ccc(C(F)(F)P(=O)(OCCSC(=O)CC6COC6)OCCSC(=O)CC6COC6)cc5c4)C(=O)N32)C[C@@H]1c1cc[nH]c(=O)c1 (single isomer, unassigned) [Compound 408]
Result string: < 5.52

Query string: What value of pIC50 has been reported for the following compound? CCCOC(=O)[C@H](C)NP(=O)(Oc1ccccc1)[C@@H](F)c1ccc2sc(C(=O)N[C@H]3CCC[C@H]4CC[C@@H](C(=O)N5CC(c6cnccc6N6CCOCC6)C5)N4C3=O)cc2c1 (stereo partly shown) [Compound 1064]
Result string: > 7.00

Query string: What value of pIC50 has been reported for the following compound? CCCOC(=O)[C@H](COC)NP(=O)(Cc1ccc2sc(C(=O)N[C@H]3CCC[C@H]4CC[C@@H](C(=O)N5CC(c6cccnc6)C5)N4C3=O)cc2c1)Oc1ccccc1 (stereo partly shown) [Compound 430]
Result string: 6.00 to 7.00

Query string: What value of pIC50 has been reported for the following compound? CCCOC(=O)[C@H](C)NP(=O)(Oc1ccccc1)C(F)c1ccc2sc(C(=O)N[C@H]3C[C@@H](C)C[C@H]4CC[C@@H](C(=O)N5CC(c6cnccc6F)C5)N4C3=O)cc2c1 (stereo partly shown) [Compound 292]
Result string: > 7.00

* * *

- TARGET: Recombinant STAT6 protein (STAT6 (W123-T658)) (Homo sapiens, UniProt P42226)
- Construct: Recombinant STAT6 protein (STAT6 (W123-T658))
- Sequence (P42226 123-658): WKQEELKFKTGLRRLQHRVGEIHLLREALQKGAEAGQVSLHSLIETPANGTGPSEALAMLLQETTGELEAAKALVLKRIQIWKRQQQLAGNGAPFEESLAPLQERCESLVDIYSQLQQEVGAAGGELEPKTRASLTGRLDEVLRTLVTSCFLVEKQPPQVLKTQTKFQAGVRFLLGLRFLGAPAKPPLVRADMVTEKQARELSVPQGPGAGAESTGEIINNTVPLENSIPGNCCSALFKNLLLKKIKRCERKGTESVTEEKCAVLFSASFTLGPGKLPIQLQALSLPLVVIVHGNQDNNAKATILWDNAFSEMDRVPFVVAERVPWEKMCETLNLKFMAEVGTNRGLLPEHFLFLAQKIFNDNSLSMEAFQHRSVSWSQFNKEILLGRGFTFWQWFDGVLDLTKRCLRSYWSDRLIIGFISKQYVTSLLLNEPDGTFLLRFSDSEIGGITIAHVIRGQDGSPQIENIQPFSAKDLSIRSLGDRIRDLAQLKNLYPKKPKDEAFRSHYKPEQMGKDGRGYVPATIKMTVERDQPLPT
- EXPERIMENT: STAT6 Fluorescence Polarization (FP) Assay
- Format: binding
- PARTICULARS: STAT6 (W123-T658) 250 nM, probe 5-FAM-Ap[…]-NH2 2 nM, 45-minute incubation; read-out: STAT6 (FP assay IC50 class)
- Description: STAT6 Fluorescence Polarization (FP) Assay An FP assay was developed to determine IC50 values for test substances. […] Reaction components were mixed, and FP was measured after 45-minute incubation at room temperature using a Tecan Spark multimode plate reader. FP signal (mP) was plotted against the log concentration of the test substances and IC50 values were calculated by nonlinear regression analysis using GraphPad Prism software. […]
MEASURE: IC50

Query string: What value of IC50 has been reported for the following compound? Cc1cccnc1C1CN(C(=O)[C@@H]2CC[C@@H]3CCC[C@H](NC(=O)c4cc5cc(CP(=O)(O)O)ccc5s4)C(=O)N32)C1
Result string: 3 to 30 µM

Query string: What value of IC50 has been reported for the following compound? CCOC1(c2nncn2C)CN(C(=O)[C@@H]2CC[C@@H]3CCC[C@H](NC(=O)c4cc5cc(C(F)(F)P(=O)(O)O)ccc5s4)C(=O)N32)C1
Result string: 3 to 30 µM

Query string: What value of IC50 has been reported for the following compound? O=C(N[C@H]1CCCC[C@H]2CC[C@@H](C(=O)N3C(=O)N(c4cccc5c4OC(F)(F)O5)C(=O)C34CC4)N2C1=O)c1cc2cc(C(F)P(=O)(O)O)ccc2s1 (stereo partly drawn)
Result string: ≤ 0.3 µM

Data origin: patent US20250215029A1
